The reader will find reported IC50 values listed item by item below.
Test system: A549
Assay: Antiproliferative activity against human A549 cells assessed as cell growth inhibition measured after 72 hrs by MTT assay
Conditions: A549, 72 h
Field format: number, assumed µM, no unit text.

compound: O=C(Nc1ccc(Oc2ccnc3[nH]ccc23)cc1)c1cn(-c2ccc(F)c(Cl)c2)c2ccccc2c1=O
observation type: IC50
measured result: 4.81
--
compound: O=C(Nc1ccc(Oc2ccnc3[nH]ccc23)cc1)c1cn(-c2ccc(F)cc2)c2ccccc2c1=O
observation type: IC50
measured result: 0.39
--
compound: O=C(Nc1ccc(Oc2ccnc3[nH]ccc23)c(F)c1)c1cn(-c2ccc(F)cc2)c2ccccc2c1=O
observation type: IC50
measured result: 0.29
--
compound: O=C(Nc1ccc(Oc2ccnc3[nH]ccc23)cc1)c1cn(-c2ccc(Cl)cc2)c2ccccc2c1=O
observation type: IC50
measured result: 0.65
--
compound: Cn1ccc2c(Oc3ccc(NC(=O)c4cn(-c5ccc(F)cc5)c5ccccc5c4=O)cc3F)ccnc21
observation type: IC50
measured result: 1.46
--
compound: O=C(Nc1ccc(Oc2ccnc3[nH]ccc23)c(F)c1)c1cn(-c2ccc(Br)cc2)c2ccccc2c1=O
observation type: IC50
measured result: 0.95
--
compound: Cn1ccc2c(Oc3ccc(NC(=O)c4cn(-c5ccccc5)c5ccccc5c4=O)cc3F)ccnc21
observation type: IC50
measured result: 1.72
--
compound: O=C(Nc1ccc(Oc2ccnc3[nH]ccc23)cc1)c1cn(-c2ccc(C(F)(F)F)cc2Cl)c2ccccc2c1=O
observation type: IC50
measured result: 2.35
--
compound: O=C(Nc1ccc(Oc2ccnc3[nH]ccc23)cc1)c1cn(-c2ccccc2)c2ccccc2c1=O
observation type: IC50
measured result: 1.03
--
compound: Cn1ccc2c(Oc3ccc(NC(=O)c4cn(-c5ccc(C(F)(F)F)cc5Cl)c5ccccc5c4=O)cc3F)ccnc21
observation type: IC50
measured result: 2.05

Please report the measured IC50 for "COc1ccc(-n2cc(C(=O)Nc3ccc(Oc4ccnc5c4ccn5C)c(F)c3)c(=O)c3ccccc32)cc1"
3.21

Please report the measured IC50 for "Cn1ccc2c(Oc3ccc(NC(=O)c4cn(-c5ccc(F)c(Cl)c5)c5ccccc5c4=O)cc3F)ccnc21"
1.21

Please report the measured IC50 for "Cn1ccc2c(Oc3ccc(NC(=O)c4cn(-c5ccc(Br)cc5F)c5ccccc5c4=O)cc3F)ccnc21"
1.52

Please report the measured IC50 for "O=C(Nc1ccc(Oc2ccnc3[nH]ccc23)c(F)c1)c1cn(-c2ccc(Cl)cc2)c2ccccc2c1=O"
0.32

Please report the measured IC50 for "O=C(Nc1ccc(Oc2ccnc3[nH]ccc23)cc1)c1cn(-c2ccc(Br)cc2F)c2ccccc2c1=O"
1.33

Please report the measured IC50 for "Cn1ccc2c(Oc3ccc(NC(=O)c4cn(-c5ccc(Cl)cc5)c5ccccc5c4=O)cc3F)ccnc21"
0.25

Please report the measured IC50 for COc1cc2c(Oc3ccc(NC(=O)C4(C(=O)Nc5ccc(F)cc5)CC4)cc3F)ccnc2cc1OCCCN1CCOCC1 [FORETINIB]
0.48

---

Target: Platelet-derived growth factor receptor beta (Homo sapiens, UniProt P09619)
Sequence (P09619 whole entry): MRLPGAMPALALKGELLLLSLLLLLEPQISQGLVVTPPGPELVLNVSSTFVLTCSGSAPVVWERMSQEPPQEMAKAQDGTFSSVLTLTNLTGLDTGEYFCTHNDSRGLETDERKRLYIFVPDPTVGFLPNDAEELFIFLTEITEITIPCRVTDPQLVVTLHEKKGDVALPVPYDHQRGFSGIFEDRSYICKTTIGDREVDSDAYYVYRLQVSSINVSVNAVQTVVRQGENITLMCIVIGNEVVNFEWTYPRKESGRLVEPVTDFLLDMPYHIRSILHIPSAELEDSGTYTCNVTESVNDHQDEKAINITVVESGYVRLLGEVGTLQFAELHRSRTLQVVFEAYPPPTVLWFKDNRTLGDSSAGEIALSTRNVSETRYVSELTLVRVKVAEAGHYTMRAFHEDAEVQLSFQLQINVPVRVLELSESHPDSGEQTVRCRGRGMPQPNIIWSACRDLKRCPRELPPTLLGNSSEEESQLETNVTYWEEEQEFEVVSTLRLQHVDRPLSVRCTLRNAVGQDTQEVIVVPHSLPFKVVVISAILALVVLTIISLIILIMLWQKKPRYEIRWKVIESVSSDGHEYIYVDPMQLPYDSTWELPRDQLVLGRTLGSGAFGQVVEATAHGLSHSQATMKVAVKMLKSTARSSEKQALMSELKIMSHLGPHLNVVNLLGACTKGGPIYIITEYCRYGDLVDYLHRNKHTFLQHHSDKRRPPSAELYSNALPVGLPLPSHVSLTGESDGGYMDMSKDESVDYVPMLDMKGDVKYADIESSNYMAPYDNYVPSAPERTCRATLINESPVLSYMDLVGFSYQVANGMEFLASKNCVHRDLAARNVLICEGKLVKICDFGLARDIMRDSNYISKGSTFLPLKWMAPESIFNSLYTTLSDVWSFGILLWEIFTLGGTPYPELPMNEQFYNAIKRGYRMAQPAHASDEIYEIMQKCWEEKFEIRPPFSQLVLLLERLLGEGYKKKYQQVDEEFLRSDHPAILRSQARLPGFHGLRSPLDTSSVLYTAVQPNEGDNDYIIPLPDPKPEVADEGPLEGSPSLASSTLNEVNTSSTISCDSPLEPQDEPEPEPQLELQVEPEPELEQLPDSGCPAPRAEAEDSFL
pIC50: −log10 of the molar value.
observation type: pIC50

State, for Platelet-derived growth factor receptor beta (Homo sapiens, UniProt P09619), measured pIC50 of the molecule listed here: "O=C(Nc1ccc(Oc2ccnc3[nH]ccc23)c(F)c1)c1cn(-c2ccc(F)cc2)c2ccccc2c1=O"
< 5.00

---

System: MCF7
Assay: Antiproliferative activity against human MCF7 cells assessed as cell growth inhibition measured after 72 hrs by MTT assay
Settings: MCF7, 72 h
The reader will find reported pIC50 values listed item by item below.
Notebook: values listed as pIC50 are -log10 of the concentration (mol/L).

molecule: O=C(Nc1ccc(Oc2ccnc3[nH]ccc23)cc1)c1cn(-c2ccc(F)c(Cl)c2)c2ccccc2c1=O
pIC50: 5.82
//
molecule: O=C(Nc1ccc(Oc2ccnc3[nH]ccc23)c(F)c1)c1cn(-c2ccc(Br)cc2)c2ccccc2c1=O
pIC50: 6.19
//
molecule: O=C(Nc1ccc(Oc2ccnc3[nH]ccc23)c(F)c1)c1cn(-c2ccccc2)c2ccccc2c1=O
pIC50: 6.37
//
molecule: COc1ccc(-n2cc(C(=O)Nc3ccc(Oc4ccnc5c4ccn5C)c(F)c3)c(=O)c3ccccc32)cc1
pIC50: 5.17
//
molecule: O=C(Nc1ccc(Oc2ccnc3[nH]ccc23)c(F)c1)c1cn(-c2ccc(Br)cc2F)c2ccccc2c1=O
pIC50: 5.86

Please report the measured pIC50 for "Cn1ccc2c(Oc3ccc(NC(=O)c4cn(-c5ccc(Br)cc5F)c5ccccc5c4=O)cc3F)ccnc21"
6.38

Please report the measured pIC50 for "O=C(Nc1ccc(Oc2ccnc3[nH]ccc23)c(F)c1)c1cn(-c2ccc(F)cc2)c2ccccc2c1=O"
6.28

Please report the measured pIC50 for COc1cc2c(Oc3ccc(NC(=O)C4(C(=O)Nc5ccc(F)cc5)CC4)cc3F)ccnc2cc1OCCCN1CCOCC1 [FORETINIB]
6.14

---

System: MCF7
Assay: Antiproliferative activity against human MCF7 cells assessed as cell growth inhibition measured after 72 hrs by MTT assay
Conditions: MCF7, 72 h
observation type: IC50 (µM)
Field format: number, assumed µM, no unit text.

Examples with their reported IC50 follow.
smiles data: O=C(Nc1ccc(Oc2ccnc3[nH]ccc23)c(F)c1)c1cn(-c2ccc(C(F)(F)F)cc2Cl)c2ccccc2c1=O
subject of test: MCF7
IC50 / µM: 1.12
//
smiles data: O=C(Nc1ccc(Oc2ccnc3[nH]ccc23)cc1)c1cn(-c2ccc(Br)cc2)c2ccccc2c1=O
subject of test: MCF7
IC50 / µM: 0.61
//
smiles data: O=C(Nc1ccc(Oc2ccnc3[nH]ccc23)cc1)c1cn(-c2ccccc2)c2ccccc2c1=O
subject of test: MCF7
IC50 / µM: 3.56
//
smiles data: Cn1ccc2c(Oc3ccc(NC(=O)c4cn(-c5ccc(Br)cc5)c5ccccc5c4=O)cc3F)ccnc21
subject of test: MCF7
IC50 / µM: 1.83
//
smiles data: Cn1ccc2c(Oc3ccc(NC(=O)c4cn(-c5ccccc5)c5ccccc5c4=O)cc3F)ccnc21
subject of test: MCF7
IC50 / µM: 2.79

Please report the measured IC50 for "Cn1ccc2c(Oc3ccc(NC(=O)c4cn(-c5ccc(Cl)cc5)c5ccccc5c4=O)cc3F)ccnc21"
2.12

Please report the measured IC50 for "COc1ccc(-n2cc(C(=O)Nc3ccc(Oc4ccnc5[nH]ccc45)cc3)c(=O)c3ccccc32)cc1"
4.65

Please report the measured IC50 for "COc1ccc(-n2cc(C(=O)Nc3ccc(Oc4ccnc5[nH]ccc45)c(F)c3)c(=O)c3ccccc32)cc1"
6.62

Please report the measured IC50 for "O=C(Nc1ccc(Oc2ccnc3[nH]ccc23)cc1)c1cn(-c2ccc(F)cc2)c2ccccc2c1=O"
0.72

Please report the measured IC50 for "O=C(Nc1ccc(Oc2ccnc3[nH]ccc23)cc1)c1cn(-c2ccc(C(F)(F)F)cc2Cl)c2ccccc2c1=O"
3.57

Please report the measured IC50 for "Cn1ccc2c(Oc3ccc(NC(=O)c4cn(-c5ccc(C(F)(F)F)cc5Cl)c5ccccc5c4=O)cc3F)ccnc21"
0.19

Please report the measured IC50 for "O=C(Nc1ccc(Oc2ccnc3[nH]ccc23)cc1)c1cn(-c2ccc(Cl)cc2)c2ccccc2c1=O"
1.59
